target_system: Integrin beta-1 (Homo sapiens) + Integrin alpha-4 (Homo sapiens) (UniProt P13612+P05556)
Sequence (P05556 whole entry, looked up): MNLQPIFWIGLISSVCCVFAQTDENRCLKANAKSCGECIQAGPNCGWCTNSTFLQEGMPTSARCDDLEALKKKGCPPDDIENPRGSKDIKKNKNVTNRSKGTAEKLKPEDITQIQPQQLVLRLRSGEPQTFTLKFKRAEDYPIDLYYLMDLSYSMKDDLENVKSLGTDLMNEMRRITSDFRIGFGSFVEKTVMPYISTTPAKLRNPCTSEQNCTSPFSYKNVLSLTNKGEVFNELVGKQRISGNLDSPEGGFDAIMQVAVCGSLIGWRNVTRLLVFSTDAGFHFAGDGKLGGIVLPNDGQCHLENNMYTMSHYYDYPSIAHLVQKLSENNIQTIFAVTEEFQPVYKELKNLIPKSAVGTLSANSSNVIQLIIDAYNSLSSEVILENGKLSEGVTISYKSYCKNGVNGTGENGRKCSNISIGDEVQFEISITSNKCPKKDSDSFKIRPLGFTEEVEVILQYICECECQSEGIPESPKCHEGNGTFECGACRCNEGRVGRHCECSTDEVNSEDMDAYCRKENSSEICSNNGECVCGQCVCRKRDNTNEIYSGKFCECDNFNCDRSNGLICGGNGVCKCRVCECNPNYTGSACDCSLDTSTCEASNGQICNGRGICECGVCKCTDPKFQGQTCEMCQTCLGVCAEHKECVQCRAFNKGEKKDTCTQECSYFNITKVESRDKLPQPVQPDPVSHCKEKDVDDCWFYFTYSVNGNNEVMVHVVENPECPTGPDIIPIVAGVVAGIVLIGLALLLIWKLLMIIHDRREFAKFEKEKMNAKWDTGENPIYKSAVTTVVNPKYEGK
Sequence (P13612 whole entry, looked up): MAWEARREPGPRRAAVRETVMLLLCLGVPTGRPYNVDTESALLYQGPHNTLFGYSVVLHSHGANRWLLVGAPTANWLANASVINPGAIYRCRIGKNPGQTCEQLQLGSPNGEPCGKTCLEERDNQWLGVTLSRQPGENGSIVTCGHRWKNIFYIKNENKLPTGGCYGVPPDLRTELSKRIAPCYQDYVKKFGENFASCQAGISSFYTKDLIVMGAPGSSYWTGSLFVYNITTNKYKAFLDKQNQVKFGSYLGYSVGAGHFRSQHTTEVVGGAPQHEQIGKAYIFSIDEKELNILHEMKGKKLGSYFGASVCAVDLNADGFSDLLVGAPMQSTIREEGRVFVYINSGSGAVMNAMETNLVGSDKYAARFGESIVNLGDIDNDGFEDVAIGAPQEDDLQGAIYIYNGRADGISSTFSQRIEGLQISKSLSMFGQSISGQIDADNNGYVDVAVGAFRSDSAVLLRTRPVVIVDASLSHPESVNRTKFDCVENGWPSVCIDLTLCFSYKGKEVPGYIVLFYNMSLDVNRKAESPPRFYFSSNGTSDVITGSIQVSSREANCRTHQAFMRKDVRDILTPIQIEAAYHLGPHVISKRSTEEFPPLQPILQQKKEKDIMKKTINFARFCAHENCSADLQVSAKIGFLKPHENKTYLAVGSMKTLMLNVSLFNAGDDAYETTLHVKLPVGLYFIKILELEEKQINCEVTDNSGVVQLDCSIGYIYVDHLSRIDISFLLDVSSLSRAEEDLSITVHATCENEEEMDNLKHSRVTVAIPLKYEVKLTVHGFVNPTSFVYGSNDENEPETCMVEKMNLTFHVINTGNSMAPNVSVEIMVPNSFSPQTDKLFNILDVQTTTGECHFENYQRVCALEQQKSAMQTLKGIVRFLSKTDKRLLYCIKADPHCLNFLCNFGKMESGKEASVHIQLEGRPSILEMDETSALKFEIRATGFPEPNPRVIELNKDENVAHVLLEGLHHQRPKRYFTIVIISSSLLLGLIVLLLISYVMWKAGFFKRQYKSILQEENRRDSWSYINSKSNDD
method_summary: inhibition of HUTS-21 binding to VLA-4, pilot screen, VLA-4 allosteric modulator project, U937 cells, HUTS-21 mAb, flow cytometry, validation set (AID 2674);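 also: antibody binding induced by the VLA-4 ligand LDV present at three times its Kd; 0% = LDV ligand with antibody and no compound and 100% = antibody without LDV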
test_conditions: HUTS-21 LIBS mAb binding, at 6.7 µM, stronger effect = higher value, binding induced by LDV ligand
Reported inhibition values are given for each entry in this list.
readout_name: inhibition (%)

In [3]: df
Out[3]:
                                    compound  reported_value
 0  CC1(C)O[C@@H]2C[C@H]3[C@@H]4CCC5=CC(=O)C=C[C@]5(C)[C@@]4(F)[C@@H](O)C[C@]3(C)[C@]2(C(=O)CO)O1            0.25
 1                 CCOCc1cc(C)[nH]c(=O)c1C#N            3.67
 2  CC(C)NCC(O)COc1ccc(CC(N)=O)cc1 (stereo unspecified)           -2.53
 3  COc1ccc2c(CCNC(=O)c3ccc([N+](=O)[O-])cc3)c[nH]c2c1           -5.89
 4                CCOC(=O)c1cnc2ccccc2c1NCCO            1.62
 5  Cc1ccc2nc3c(cc(C(=O)NCC4CCCO4)c(=N)n3CCCOC(C)C)c(=O)n2c1 (stereo unspecified)            9.09
 6                CCN(CC)C(=S)SSC(=S)N(CC)CC            27.8
 7          COc1cc(C(=O)OCCCN(C)C)cc(OC)c1OC            21.9
 8                      O=C1CCCCCN1Cc1ccccc1            3.67
 9           CN1CCC(OC(c2ccccc2)c2ccccc2)CC1            7.22
10  O=C(NCCc1cccc(F)c1)[C@@H]1CSC2c3ccccc3C(=O)N21 (stereo partly specified)            5.03

These data points were gathered from PubChem BioAssay.
